Tested on: Staphylococcus aureus
protocol.description: Antibacterial activity against methicillin-resistant Staphylococcus aureus clinical isolate 4 incubated for 16 to 18 hrs by CLSI-based microbroth dilution method
Type: functional
measurement.parameters: time 16-18 hrs
value.kind: MIC (µg/mL)
I only need the number, in µg/mL, no unit after it.

Entry COc1cc2c(c(O)c1C(=O)/C=C/c1ccc(OCCC[N+](C)(C)CC(=O)N3CCSCC3)cc1)C=CC(C)(C)O2.[Br-] needs its MIC filled in; supply it.
4

More entries:
Entry CCCCNC(=O)C[N+](C)(C)CCCCCOc1ccc(/C=C/C(=O)c2c(OC)cc3c(c2O)C=CC(C)(C)O3)cc1.[Br-] needs its MIC filled in; supply it.
2

Entry COc1cc2c(c(O)c1C(=O)/C=C/c1ccc(OCCC[N+](C)(C)CC(=O)N(CC(C)C)CC(C)C)cc1)C=CC(C)(C)O2.[Br-] needs its MIC filled in; supply it.
2

Entry CCCCCNC(=O)C[N+](C)(C)CCCCOc1ccc(/C=C/C(=O)c2c(OC)cc3c(c2O)C=CC(C)(C)O3)cc1.[Br-] needs its MIC filled in; supply it.
8

Entry COc1cc(O)c(CC=C(C)C)c(O)c1C(=O)/C=C/c1ccc(O)cc1 [XANTHOHUMOL] needs its MIC filled in; supply it.
4

Entry COc1cc2c(c(O)c1C(=O)/C=C/c1ccc(O)cc1)C=CC(C)(C)O2 [XANTHOHUMOL C] needs its MIC filled in; supply it.
4

Entry CCCCN(CCCC)C(=O)C[N+](C)(C)CCCOc1ccc(/C=C/C(=O)c2c(OC)cc3c(c2O)C=CC(C)(C)O3)cc1.[Br-] needs its MIC filled in; supply it.
2

Entry CCCCCCNC(=O)C[N+](C)(C)CCCOc1ccc(/C=C/C(=O)c2c(OC)cc3c(c2O)C=CC(C)(C)O3)cc1.[Br-] needs its MIC filled in; supply it.
2

Entry COc1cc2c(c(O)c1C(=O)/C=C/c1ccc(OCCCCC[N+](C)(C)CC(=O)N3CCOCC3)cc1)C=CC(C)(C)O2.[Br-] needs its MIC filled in; supply it.
4

Entry CCCNC(=O)C[N+](C)(C)CCCCCOc1ccc(/C=C/C(=O)c2c(OC)cc3c(c2O)C=CC(C)(C)O3)cc1.[Br-] needs its MIC filled in; supply it.
2

---

System: Staphylococcus aureus
protocol.description: Antibacterial activity against methicillin-resistant Staphylococcus aureus clinical isolate 3 incubated for 16 to 18 hrs by CLSI-based microbroth dilution method
Assay type: functional
measurement.parameters: time 16-18 hrs
value.kind: MIC (µg/mL)
I only need the number, in µg/mL, no unit after it.

Example compounds with recorded MIC:
Entry CCCCNC(=O)C[N+](C)(C)CCCCOc1ccc(/C=C/C(=O)c2c(OC)cc3c(c2O)C=CC(C)(C)O3)cc1.[Br-] needs its MIC filled in; supply it.
2

Entry COc1cc2c(c(O)c1C(=O)/C=C/c1ccc(O)cc1)C=CC(C)(C)O2 [XANTHOHUMOL C] needs its MIC filled in; supply it.
4

Entry CCCCCNC(=O)C[N+](C)(C)CCCCCOc1ccc(/C=C/C(=O)c2c(OC)cc3c(c2O)C=CC(C)(C)O3)cc1.[Br-] needs its MIC filled in; supply it.
2

More entries:
Entry CCCCCNC(=O)C[N+](C)(C)CCCCOc1ccc(/C=C/C(=O)c2c(OC)cc3c(c2O)C=CC(C)(C)O3)cc1.[Br-] needs its MIC filled in; supply it.
4

Entry COc1cc2c(c(O)c1C(=O)/C=C/c1ccc(OCCC[N+](C)(C)CC(=O)N3CCOCC3)cc1)C=CC(C)(C)O2.[Br-] needs its MIC filled in; supply it.
8

Entry CCCN(CCC)C(=O)C[N+](C)(C)CCCCCOc1ccc(/C=C/C(=O)c2c(OC)cc3c(c2O)C=CC(C)(C)O3)cc1.[Br-] needs its MIC filled in; supply it.
2

Entry COc1cc2c(c(O)c1C(=O)/C=C/c1ccc(OCCCC[N+](C)(C)CC(=O)N3CCOCC3)cc1)C=CC(C)(C)O2.[Br-] needs its MIC filled in; supply it.
4

Entry COc1cc2c(c(O)c1C(=O)/C=C/c1ccc(OCCCCC[N+](C)(C)CC(=O)N(CC(C)C)CC(C)C)cc1)C=CC(C)(C)O2.[Br-] needs its MIC filled in; supply it.
2

Entry CCCCCCNC(=O)C[N+](C)(C)CCCCOc1ccc(/C=C/C(=O)c2c(OC)cc3c(c2O)C=CC(C)(C)O3)cc1.[Br-] needs its MIC filled in; supply it.
2

Entry COc1cc2c(c(O)c1C(=O)/C=C/c1ccc(OCCCC[N+](C)(C)CC(=O)N3CCSCC3)cc1)C=CC(C)(C)O2.[Br-] needs its MIC filled in; supply it.
2

Entry COc1cc2c(c(O)c1C(=O)/C=C/c1ccc(OCCCCC[N+](C)(C)CC(=O)N3CCSCC3)cc1)C=CC(C)(C)O2.[Br-] needs its MIC filled in; supply it.
4

Entry CCCCCNC(=O)C[N+](C)(C)CCCOc1ccc(/C=C/C(=O)c2c(OC)cc3c(c2O)C=CC(C)(C)O3)cc1.[Br-] needs its MIC filled in; supply it.
2

Entry COc1cc(O)c(CC=C(C)C)c(O)c1C(=O)/C=C/c1ccc(O)cc1 [XANTHOHUMOL] needs its MIC filled in; supply it.
8

Entry COc1cc2c(c(O)c1C(=O)/C=C/c1ccc(OCCC[N+](C)(C)CC(=O)N3CCSCC3)cc1)C=CC(C)(C)O2.[Br-] needs its MIC filled in; supply it.
2

Entry CCCCN(CCCC)C(=O)C[N+](C)(C)CCCCOc1ccc(/C=C/C(=O)c2c(OC)cc3c(c2O)C=CC(C)(C)O3)cc1.[Br-] needs its MIC filled in; supply it.
1

---

Tested on: Staphylococcus aureus
protocol.description: Antibacterial activity against methicillin-resistant Staphylococcus aureus clinical isolate 2 incubated for 16 to 18 hrs by CLSI-based microbroth dilution method
Format: functional
measurement.parameters: time 16-18 hrs
Some compounds, each annotated with its measured MIC.

Example compounds with recorded MIC:
Entry CCCNC(=O)C[N+](C)(C)CCCOc1ccc(/C=C/C(=O)c2c(OC)cc3c(c2O)C=CC(C)(C)O3)cc1.[Br-] needs its MIC filled in; supply it.
2 µg/mL

Entry CCCCCNC(=O)C[N+](C)(C)CCCCOc1ccc(/C=C/C(=O)c2c(OC)cc3c(c2O)C=CC(C)(C)O3)cc1.[Br-] needs its MIC filled in; supply it.
4 µg/mL

Entry COc1cc2c(c(O)c1C(=O)/C=C/c1ccc(OCCCC[N+](C)(C)CC(=O)N(C(C)C)C(C)C)cc1)C=CC(C)(C)O2.[Br-] needs its MIC filled in; supply it.
2 µg/mL

Entry CCCN(CCC)C(=O)C[N+](C)(C)CCCOc1ccc(/C=C/C(=O)c2c(OC)cc3c(c2O)C=CC(C)(C)O3)cc1.[Br-] needs its MIC filled in; supply it.
2 µg/mL

Entry COc1cc2c(c(O)c1C(=O)/C=C/c1ccc(OCCCCC[N+](C)(C)CC(=O)N(C(C)C)C(C)C)cc1)C=CC(C)(C)O2.[Br-] needs its MIC filled in; supply it.
2 µg/mL

Entry CCCCNC(=O)C[N+](C)(C)CCCOc1ccc(/C=C/C(=O)c2c(OC)cc3c(c2O)C=CC(C)(C)O3)cc1.[Br-] needs its MIC filled in; supply it.
2 µg/mL

More entries:
Entry COc1cc2c(c(O)c1C(=O)/C=C/c1ccc(OCCC[N+](C)(C)CC(=O)N(C(C)C)C(C)C)cc1)C=CC(C)(C)O2.[Br-] needs its MIC filled in; supply it.
2 µg/mL

Entry COc1cc2c(c(O)c1C(=O)/C=C/c1ccc(OCCCCC[N+](C)(C)CC(=O)N3CCOCC3)cc1)C=CC(C)(C)O2.[Br-] needs its MIC filled in; supply it.
4 µg/mL

Entry CCCNC(=O)C[N+](C)(C)CCCCOc1ccc(/C=C/C(=O)c2c(OC)cc3c(c2O)C=CC(C)(C)O3)cc1.[Br-] needs its MIC filled in; supply it.
2 µg/mL

Entry COc1cc2c(c(O)c1C(=O)/C=C/c1ccc(OCCCC[N+](C)(C)CC(=O)N(CC(C)C)CC(C)C)cc1)C=CC(C)(C)O2.[Br-] needs its MIC filled in; supply it.
2 µg/mL

Entry COc1cc2c(c(O)c1C(=O)/C=C/c1ccc(OCCCC[N+](C)(C)CC(=O)N3CCOCC3)cc1)C=CC(C)(C)O2.[Br-] needs its MIC filled in; supply it.
8 µg/mL

Entry COc1cc2c(c(O)c1C(=O)/C=C/c1ccc(OCCCCC[N+](C)(C)CC(=O)N(CC(C)C)CC(C)C)cc1)C=CC(C)(C)O2.[Br-] needs its MIC filled in; supply it.
1 µg/mL

Entry CCCCNC(=O)C[N+](C)(C)CCCCCOc1ccc(/C=C/C(=O)c2c(OC)cc3c(c2O)C=CC(C)(C)O3)cc1.[Br-] needs its MIC filled in; supply it.
2 µg/mL
